These data points were gathered from patent US20250388666A1.

Target: T1, CEACAM1 (Sino Biological) (human, UniProt P13688 35-428, limits assumed)
T1 construct: may be the same as CEACAM1-HIS; also called hCEACAM1; biotinylated soluble CEACAM1
T1 sequence: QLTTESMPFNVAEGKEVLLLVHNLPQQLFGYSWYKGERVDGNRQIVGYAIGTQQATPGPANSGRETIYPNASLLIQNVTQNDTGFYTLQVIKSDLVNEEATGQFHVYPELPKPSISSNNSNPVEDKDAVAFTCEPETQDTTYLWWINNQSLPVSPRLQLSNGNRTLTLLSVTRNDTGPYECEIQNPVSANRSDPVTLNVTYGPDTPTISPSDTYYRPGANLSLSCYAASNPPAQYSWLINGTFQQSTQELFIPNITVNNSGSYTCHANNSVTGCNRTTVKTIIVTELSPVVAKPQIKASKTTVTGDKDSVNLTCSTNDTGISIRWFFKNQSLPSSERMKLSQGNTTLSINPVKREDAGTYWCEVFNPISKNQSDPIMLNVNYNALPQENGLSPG
Test: SPR single-cycle
measure-name: Kd (nM)
Numbers only here, please. The scale is nM.

See these solved cases before continuing.
Query: Reported Kd, binder He6/L19 (antibody, IgG4, V domains shown, IgG4 S241P, kappa) VH: EVQLLESGGGLVQPGGSLRLSCAASGFSFSDYYLYWVRQAPGKGLEWVATISVGGGQTSYADSVKGRFTISRDNSKNTLYLQMNSLRAEDTAMYYCARARTYGPAWFAYWGQGTLVTVSS VL: DIVMTQSPDSLAVSLGERATINCKSSQSLLNSANQKNYLAWYQQKPGQPPKLLIYFASTRESGVPDRFSGSGSGTDFTLTISSLQAEDVAVYYCQSHIYPNFTFGGGTKVEIK : ____
Response: 237

Query: Entry He14/L3 (antibody, IgG4, V domains shown, IgG4 S241P, kappa) VH: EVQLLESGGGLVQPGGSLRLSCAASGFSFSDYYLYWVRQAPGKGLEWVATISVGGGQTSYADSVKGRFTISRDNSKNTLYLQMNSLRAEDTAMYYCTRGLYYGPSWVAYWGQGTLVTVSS VL: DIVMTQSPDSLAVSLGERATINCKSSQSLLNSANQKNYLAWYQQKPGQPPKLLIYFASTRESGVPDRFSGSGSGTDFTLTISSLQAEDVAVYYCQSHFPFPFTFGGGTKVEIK has what Kd?
Response: 107

Now take the following binder into account.
Query: Which Kd is listed for He13/L1 (antibody, IgG4, V domains shown, IgG4 S241P, kappa) VH: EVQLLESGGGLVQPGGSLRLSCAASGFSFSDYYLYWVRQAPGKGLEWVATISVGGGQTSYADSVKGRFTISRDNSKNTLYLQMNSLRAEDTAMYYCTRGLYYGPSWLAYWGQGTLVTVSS VL: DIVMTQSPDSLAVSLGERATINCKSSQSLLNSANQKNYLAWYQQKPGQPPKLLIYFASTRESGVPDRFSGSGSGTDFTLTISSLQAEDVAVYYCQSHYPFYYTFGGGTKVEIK ?
Response: 126
